Target: KRAS WT (Homo sapiens, UniProt P01116)
Sequence (P01116 1-188 isoform P01116-2): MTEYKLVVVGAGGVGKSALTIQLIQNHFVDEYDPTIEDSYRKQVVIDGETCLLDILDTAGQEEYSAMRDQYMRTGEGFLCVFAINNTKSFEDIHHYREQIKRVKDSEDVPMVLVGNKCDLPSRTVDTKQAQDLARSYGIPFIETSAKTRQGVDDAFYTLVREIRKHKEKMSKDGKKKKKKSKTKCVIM
Assay: HTRF KRAS-SOS1 interaction assay, wildtype KRAS
Conditions: binned ≤2 μM / >2 μM, read-out: Inhibition of KRAS WT (IC50)
Description: This assay can be also used to assess a selective inhibition or reduction of signaling output of a mutant Ras protein relative to a wildtype, or relative to a different mutant Ras protein. For example, the equilibrium interaction of wildtype KRAS or K-Ras mutant (e.g., wildtype or a mutant thereof) with SOS1 (e.g., hSOS1) can be assessed as a proxy or an indication for the ability of a subject compound to bind and inhibit Ras protein. […]
quantityKind: IC50

Consider the following illustrative entries.
Exam item: Under KRAS WT (Homo sapiens, UniProt P01116): IC50 value of N#Cc1c(N)sc2c(F)ccc(-c3c(C(F)(F)F)c4c5c(nc(OC[C@@]67CCCN6C[C@H](F)C7)nc5c3F)N([C@H](CC3CCC3)c3cccnc3N)CCO4)c12 (single isomer, unassigned) [Compound 902] ?
Marked response: > 2000 nM

Exam item: Try this compound next: Cc1c(F)c(N)cc(-c2nc3c4c(nc(OC[C@@]56CCCN5C[C@H](F)C6)nc4c2F)N([C@H](C)c2cccnc2N)CCO3)c1C(F)(F)F (single isomer, unassigned) [Compound 765]
Marked response: ≤ 2000 nM

Exam item: Try this compound next: C=CC[C@H](c1cccnc1N)N1CCOc2c(Cl)c(-c3ccc(F)c4sc(N)c(C#N)c34)c(F)c3nc(OC[C@@]45CCCN4C[C@H](F)C5)nc1c23 (atropisomer, axis not shown; (aS)) [Compound 683]
Marked response: ≤ 2000 nM

Exam item: Try this compound next: C[C@H](c1cccnc1N)N1CCOc2c(Cl)c(-c3ccc(F)c4sc(N)c(C#N)c34)c(F)c3nc(OCC45CCCC4CCC5)nc1c23 (single isomer, unassigned) [Compound 674]
Marked response: > 2000 nM

Proceed to the following item.
Exam item: Under KRAS WT (Homo sapiens, UniProt P01116): IC50 value of CO[C@H]1CCN(C)[C@@H]1[C@H](C)Oc1nc2c3c(c(C(F)(F)F)c(-c4ccc(F)c5sc(N)c(C#N)c45)c(F)c3n1)OCCN2[C@H](CCC(F)(F)F)c1cccnc1N [Compound 649] ?
Marked response: ≤ 2000 nM

---

molecular target: KRAS G12V (Homo sapiens, UniProt P01116, G12V); assay: HTRF KRAS-SOS1 interaction assay, KRAS G12V; details: binned ≤2 μM / >2 μM, read-out: Inhibition of KRAS G12V (IC50)
Sequence (P01116 1-188 isoform P01116-2 G12V): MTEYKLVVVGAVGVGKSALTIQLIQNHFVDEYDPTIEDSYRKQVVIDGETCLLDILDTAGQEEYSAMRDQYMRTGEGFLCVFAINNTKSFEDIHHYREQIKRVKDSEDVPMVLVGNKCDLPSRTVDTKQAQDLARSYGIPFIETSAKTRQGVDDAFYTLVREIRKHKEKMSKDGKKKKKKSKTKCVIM
pIC50: −log10 of the molar value.
Listed below: pIC50 values for each entry.

Consider the following illustrative entries.
Exam item: Given the compound N#Cc1c(N)sc2c(F)ccc(-c3c(C(F)(F)F)c4c5c(nc(OC[C@@]67CCCN6CC(=C(F)F)C7)nc5c3F)N([C@H](CCC3CCOCC3)c3cccnc3N)CCO4)c12 , what is its reported pIC50?
Marked response: ≥ 5.70

Exam item: Try this compound next: N#Cc1c(N)sc2c(F)ccc(-c3c(Cl)c4c5c(nc(OC[C@@]67CCCN6C[C@H](F)C7)nc5c3F)N(Cc3cccnc3N)C3COCC3CO4)c12 (mixture of isomers)
Marked response: ≥ 5.70

Exam item: Try this compound next: C#CCC(c1cccnc1N)N1CCOc2c(Cl)c(-c3ccc(F)c4sc(N)c(C#N)c34)c(F)c3nc(OC[C@@]45CCCN4C[C@H](F)C5)nc1c23 (single isomer, unassigned)
Marked response: ≥ 5.70

Exam item: Try this compound next: C[C@H](c1cccnc1N)N1CCOc2c(C(F)(F)F)c(-c3ccc(F)c4sc(N)c(C#N)c34)c(F)c3nc(OCC4(CN5CCC(=C(F)F)CC5)CC4)nc1c23 (single isomer, unassigned) [Compound 884]
Marked response: < 5.70

Proceed to the following item.
Exam item: Given the compound C[C@H](c1cc(F)cnc1N)N1CCOc2c(C(F)(F)F)c(-c3ccc(F)c4sc(N)c(C#N)c34)c(F)c3nc(OC[C@@]45CCCN4C[C@H](F)C5)nc1c23 (single isomer, unassigned) [Compound 864] , what is its reported pIC50?
Marked response: ≥ 5.70

---

target: KRAS WT (Homo sapiens); assay: HTRF KRAS-SOS1 interaction assay, wildtype KRAS; conditions: binned ≤2 μM / >2 μM, read-out: Inhibition of KRAS WT (IC50)
pIC50: −log10 of the molar value.
quantityKind: pIC50

Consider the following illustrative entries.
Exam item: Given the compound C[C@H](c1cccnc1N)N1CCOc2c(Cl)c(-c3ncc(F)c4sc(N)c(C#N)c34)c(F)c3nc(OC[C@@]45CCCN4C[C@H](F)C5)nc1c23 (single isomer, unassigned) , what is its reported pIC50?
Marked response: ≥ 5.70

Exam item: Try this compound next: C[C@H](c1ccc(F)nc1N)N1CCOc2c(C(F)(F)F)c(-c3ccc(F)c4sc(N)c(C#N)c34)c(F)c3nc(OC[C@@]45CCCN4C[C@H](F)C5)nc1c23 (single isomer, unassigned)
Marked response: ≥ 5.70

Exam item: Try this compound next: N#Cc1c(N)sc2c(F)ccc(-c3c(C(F)(F)F)c4c5c(nc(OC[C@@]67CCCN6CC(=C(F)F)C7)nc5c3F)N([C@H](CCC(F)(F)F)c3cccnc3N)CCO4)c12
Marked response: ≥ 5.70

Exam item: Try this compound next: N#Cc1c(N)sc2c(F)ccc(-c3c(C(F)(F)F)c4c5c(nc(OC[C@@]67CCCN6C[C@H](F)C7)nc5c3F)N([C@H](CC3CCOCC3)c3cccnc3N)CCO4)c12 (single isomer, unassigned)
Marked response: ≥ 5.70

Others:
Exam item: Given the compound C[C@H](Oc1nc2c3c(c(Cl)c(-c4ccc(F)c5sc(N)c(C#N)c45)c(F)c3n1)OCCN2[C@H](C)c1cccnc1N)[C@@H]1CCCN1C (mixture of isomers) [Compound 803] , what is its reported pIC50?
Marked response: ≥ 5.70

---

target: KRAS G12V (Homo sapiens, UniProt P01116, G12V); assay: HTRF KRAS-SOS1 interaction assay, KRAS G12V; conditions: binned ≤2 μM / >2 μM, read-out: Inhibition of KRAS G12V (IC50)
pIC50: −log10 of the molar value.
quantityKind: pIC50

Consider the following illustrative entries.
Exam item: Given the compound C#Cc1c(F)ccc2cc(O)cc(-c3nc4c5c(nc(OC[C@@]67CCCN6C[C@H](F)C7)nc5c3F)N([C@H](C)c3cccnc3N)CCO4)c12 (single isomer, unassigned) [Compound 862] , what is its reported pIC50?
Marked response: ≥ 5.70

Exam item: Try this compound next: C[C@H](c1cccnc1N)N1CCOc2c(Br)c(-c3ccc(F)c4sc(N)c(C#N)c34)c(F)c3nc(OC[C@@]45CCCN4C[C@H](F)C5)nc1c23 (single isomer, unassigned) [Compound 858]
Marked response: ≥ 5.70

Others:
Exam item: Given the compound C[C@H](c1ccc(F)nc1N)N1CCOc2c(C(F)(F)F)c(-c3ccc(F)c4sc(N)c(C#N)c34)c(F)c3nc(OCC4(CN5CCC(F)CC5)CC4)nc1c23 [Compound 604] , what is its reported pIC50?
Marked response: ≥ 5.70

Exam item: Try this compound next: C[C@H](c1ccc(C#N)nc1N)N1CCOc2c(Cl)c(-c3ccc(F)c4sc(N)c(C#N)c34)c(F)c3nc(OC[C@@]45CCCN4C[C@H](F)C5)nc1c23 [Compound 851]
Marked response: ≥ 5.70

Exam item: Try this compound next: C[C@H](c1cccnc1N)N1CCOc2c(C(F)(F)F)c(-c3ccc(F)c4sc(N)c(C#N)c34)c(F)c3nc(OCC4(CN5[C@H](C)COC[C@@H]5C)CC4)nc1c23 (single isomer, unassigned) [Compound 763]
Marked response: ≥ 5.70

---

Listed below: IC50 values for each entry.
molecular target: KRAS G12D (Homo sapiens, UniProt P01116, G12D); test: HTRF KRAS-SOS1 interaction assay, KRAS G12D; conditions: binned ≤2 μM / >2 μM, read-out: Inhibition of KRAS G12D (IC50)
Sequence (P01116 1-188 isoform P01116-2 G12D): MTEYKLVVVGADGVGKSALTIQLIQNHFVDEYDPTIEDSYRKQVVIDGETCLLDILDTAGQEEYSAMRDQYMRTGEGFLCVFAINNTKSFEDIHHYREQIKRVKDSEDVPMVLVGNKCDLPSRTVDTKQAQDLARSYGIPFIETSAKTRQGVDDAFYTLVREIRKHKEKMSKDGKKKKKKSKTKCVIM

Consider the following illustrative entries.
Exam item: Given the compound C=C1CN2CCC[C@@]2(COc2nc3c4c(c(C(F)(F)F)c(-c5ccc(F)c6sc(N)c(C#N)c56)c(F)c4n2)OCCN3[C@H](C)c2cccnc2N)C1 , what is its reported IC50?
Marked response: ≤ 2 µM

Exam item: Try this compound next: CO[C@H]1CCN(C)[C@@H]1[C@H](C)Oc1nc2c3c(c(C(F)(F)F)c(-c4ccc(F)c5sc(N)c(C#N)c45)c(F)c3n1)OCCN2[C@H](C)c1cc(Cl)cnc1N
Marked response: ≤ 2 µM

Exam item: Try this compound next: C[C@@H]1CN(CC2(COc3nc4c5c(c(C(F)(F)F)c(-c6ccc(F)c7sc(N)c(C#N)c67)c(F)c5n3)OCCN4[C@H](C)c3cccnc3N)CC2)C[C@H](C)O1 [Compound 710]
Marked response: > 2 µM

Exam item: Try this compound next: C[C@H](c1cccnc1F)N1CCOc2c(C(F)(F)F)c(-c3ccc(F)c4sc(N)c(C#N)c34)c(F)c3nc(OC[C@@]45CCCN4C[C@H](F)C5)nc1c23
Marked response: ≤ 2 µM

Others:
Exam item: Given the compound N#Cc1c(N)sc2c(F)ccc(-c3c(C(F)(F)F)c4c5c(nc(OCC6(CN7CCC8(CC7)CC8(F)F)CC6)nc5c3F)N([C@H](CCC3CCOCC3)c3cccnc3N)CCO4)c12 , what is its reported IC50?
Marked response: ≤ 2 µM
